Tested on: NCI-H23 lung
Assay Comment: NCI-60 one-dose screen, 48 h (100 = growth as untreated, 0 = no growth, -100 = all killed)
Condition Details: 10 µM unless noted
About 83,000 compounds went through this panel and 20% of them were active in at least one assay; those are over-represented in the sample as a whole.
Form field: growth (one value per entry).
Respond with the bare value in %.

Recorded results for 3 compounds are shown here.
Cc1ccc(C2=C/C(=C/c3ccc(Br)cc3)C(=O)N2CCc2ccc(S(N)(=O)=O)cc2)cc1    100
Cc1ccc(S(=O)(=O)N/N=C2\CC3CCC2(C)C3(C)C)cc1 (stereo not given)    237
ClC1=C(Cl)C(Cl)=C(Cl)C1=Cc1ccccc1    -58.6

Q. Assign growth to the following record: `COc1ccc(C(C(=O)O)c2ccc(OC)cc2)cc1`
A. 113

Q. Output growth of `CCN=Cc1c(O)c(O)c(C(C)C)c2cc(C)c(-c3c(C)cc4c(C(C)C)c(O)c(O)c(C=NCC)c4c3O)c(O)c12`
A. 24.9
